# EXPERIMENT_NOTES: Plasma pharmacokinetics of paclitaxel, pazopanib and lapatinib in cycle 1
# Format: in vivo, human
# MEASUREMENT_SETUP: human, plasma, intravenous, 50 mg m^−2
PROPERTY_LABEL: AUC(0-inf)
# number then unit; no other words

Input: Entry `CC(=O)O[C@H]1C(=O)[C@@]2(C)[C@H]([C@H](OC(=O)c3ccccc3)[C@]3(O)C[C@H](OC(=O)[C@H](O)[C@@H](NC(=O)c4ccccc4)c4ccccc4)C(C)=C1C3(C)C)[C@]1(OC(C)=O)CO[C@@H]1C[C@@H]2O` has what AUC(0-inf)?
Output: 2150 ng·h/mL

====

# EXPERIMENT_NOTES: Plasma pharmacokinetics of paclitaxel, pazopanib and lapatinib in cycle 1
# Format: in vivo, human
# MEASUREMENT_SETUP: human, plasma, intravenous, Paclitaxel AUC(0-∞), day 15; 80 mg m^−2 paclitaxel+400 mg pazopanib+1000 mg lapatinib (MTR); n=9; geometric mean (95% confidence interval)
PROPERTY_LABEL: AUC(0-inf)
Remember to quote the unit after the number.

Input: Would you mind telling me what AUC(0-inf) value was observed for `CC(=O)O[C@H]1C(=O)[C@@]2(C)[C@H]([C@H](OC(=O)c3ccccc3)[C@]3(O)C[C@H](OC(=O)[C@H](O)[C@@H](NC(=O)c4ccccc4)c4ccccc4)C(C)=C1C3(C)C)[C@]1(OC(C)=O)CO[C@@H]1C[C@@H]2O` ?
Output: 5230 ng·h/mL

====

# EXPERIMENT_NOTES: Plasma pharmacokinetics of paclitaxel, pazopanib and lapatinib in cycle 1
# Type: in vivo, human
# MEASUREMENT_SETUP: human, plasma, intravenous, Paclitaxel AUC(0–∞), day 15; 80 mg m^−2 paclitaxel+800 mg pazopanib+1000 mg lapatinib; n=1; individual value
PROPERTY_LABEL: AUC(0-inf) (ng·h/mL)
Report the figure in ng·h/mL without appending any unit label.

Input: AUC(0-inf) lookup needed for `CC(=O)O[C@H]1C(=O)[C@@]2(C)[C@H]([C@H](OC(=O)c3ccccc3)[C@]3(O)C[C@H](OC(=O)[C@H](O)[C@@H](NC(=O)c4ccccc4)c4ccccc4)C(C)=C1C3(C)C)[C@]1(OC(C)=O)CO[C@@H]1C[C@@H]2O` , thanks.
Output: 4370

====

# EXPERIMENT_NOTES: Plasma pharmacokinetics of paclitaxel, pazopanib and lapatinib in cycle 1
# Type: in vivo, human
# MEASUREMENT_SETUP: human, plasma, intravenous, 80 mg m^−2
PROPERTY_LABEL: Cmax (ng/mL)
Provide only the numeric value, understood in ng/mL.

Input: Reported Cmax, compound `CC(=O)O[C@H]1C(=O)[C@@]2(C)[C@H]([C@H](OC(=O)c3ccccc3)[C@]3(O)C[C@H](OC(=O)[C@H](O)[C@@H](NC(=O)c4ccccc4)c4ccccc4)C(C)=C1C3(C)C)[C@]1(OC(C)=O)CO[C@@H]1C[C@@H]2O` : ____
Output: 2290

====

# EXPERIMENT_NOTES: Plasma pharmacokinetics of paclitaxel, pazopanib and lapatinib in cycle 1
# Assay type: in vivo, human
# MEASUREMENT_SETUP: human, plasma, intravenous, 80 mg m^−2
PROPERTY_LABEL: AUC(0-inf) (ng·h/mL)
Please state the figure in ng·h/mL; there is no need to write the unit.

Input: Look at this compound and give its reported AUC(0-inf). CC(=O)O[C@H]1C(=O)[C@@]2(C)[C@H]([C@H](OC(=O)c3ccccc3)[C@]3(O)C[C@H](OC(=O)[C@H](O)[C@@H](NC(=O)c4ccccc4)c4ccccc4)C(C)=C1C3(C)C)[C@]1(OC(C)=O)CO[C@@H]1C[C@@H]2O [paclitaxel]
Output: 3820
